Readings of binding signal for the listed binders
# Study target: T1, RBFOX1 RRM RbFoxmut (Fox-RRM*) (Homo sapiens, UniProt Q9NWB1 109-208, R118D;E147R;N151S;E152T)
# T1 sequence: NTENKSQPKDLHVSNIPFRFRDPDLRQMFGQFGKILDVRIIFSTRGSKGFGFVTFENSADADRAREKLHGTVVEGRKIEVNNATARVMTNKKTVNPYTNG
# Protocol details: EMSA; HiTS-Eq, 1 nM pool, 10 min; buffer printed only for the single-RNA assays: 10 mM Tris pH 7.5, 150 mM NaCl, 3.4 mM EDTA, 0.001% NP-40, 30 C
# Condition notes: tags: His6 N-terminal (pET28a); label: 5' 32P
Over roughly 16,000 sequences, “ka relative to ugcaugu” has its median near 0.096; the highest 2% begin near 0.35. Many of the other results were omitted from the sample, so the highest values are more common in it than they were.

Binder	binding signal
UCCUCCG (DNA:RNA) RNA: GGGAGACCGGAAUUCAGAUUGUCCUCCUCCGUUAAAUCCCGUCGUAGCCACCA DNA 1: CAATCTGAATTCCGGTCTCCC DNA 2: TGGTGGCTACGACGGGATT	0.0609 KA relative to UGCAUGU
AUGACGA (DNA:RNA) RNA: GGGAGACCGGAAUUCAGAUUGUCCAUGACGAUUAAAUCCCGUCGUAGCCACCA DNA 1: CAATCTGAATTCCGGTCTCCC DNA 2: TGGTGGCTACGACGGGATT	0.0609 KA relative to UGCAUGU
GCAGUAG (DNA:RNA) RNA: GGGAGACCGGAAUUCAGAUUGUCCGCAGUAGUUAAAUCCCGUCGUAGCCACCA DNA 1: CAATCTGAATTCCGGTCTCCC DNA 2: TGGTGGCTACGACGGGATT	0.122 KA relative to UGCAUGU

Task: # lookup: binding signal of GCAUAGU (DNA:RNA) RNA: GGGAGACCGGAAUUCAGAUUGUCCGCAUAGUUUAAAUCCCGUCGUAGCCACCA DNA 1: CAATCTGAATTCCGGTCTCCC DNA 2: TGGTGGCTACGACGGGATT
Result: 0.192 KA relative to UGCAUGU
